Biological target: HLA-A2/WT1 235-243 (…) complex (human, biotin at a specific biotinylation site at the C-terminus)
Experiment: ELISA on wells coated with the named HLA-A2/peptide monomer, HRP anti-Flag detection, OD 490 nm

binder	binding result
S3.1 scFv (scFv, Soluble scFv, Ni-NTA purified, detected with anti-Flag) scFv: EVQLLESGGGLVQPGGSLRLSCAASGFTFSSYAMSWVRQAPGKGLEWVSLIDPWGQETLYADSVKGRFTISRDNSKNTLYLQMNSLGAEDTAVYYCAKLTGRFDYWGQGTLVTVSSGGGGSGGGGSGGGGSTDIQMTQSPSSLSASVGDRVTITCRASQSISSYLNWYQQKPGKAPKLLIYSASQLQSGVPSRFSGSGSGTDFTLTISNLQPEDFATYYCQQGPGTPNTFGQGTKVEIKRA	no binding
Clone45 scFv (scFv, also called scFv Clone45; parental Clone45) scFv: EVQLLESGGGLVQPGGSLRLSCAASGFTFSSYAMSWVRQAPGKGLEWVSQIDPWGQETLYADSVKGRFTISRDNSKNTLYLQMNSLRAEDTAVYYCAKLTGRFDYWGQGTLVTVSSGGGGSGGGGSGGGGSTDIQMTQSPSSLSASVGDRVTITCRASQSISSYLNWYQQKPGKAPKLLIYSASQLQSGVPSRFSGSGSGTDFTLTISSLQPEDFATYYCQQGPGTPNTFGQGTKVEIKRA	no binding

Each recorded value in this set is attributed to patent US20160152725A1.
